# Tested on: mAb6H4
# Assay name: RIA binding specificity, relative potency to METH
# Parameters: species or system mouse
# Assay setup: RIA IC50 value for METH/RIA IC50 value for test ligand
Field: Relative Potency to METH, mAb6H4. Provide a value for each of the compounds that follow.
Enter the number alone.

The recorded Relative Potency to METH, mAb6H4 for entry CNC[C@H](O)c1cccc(O)c1 [/-phenylphrine] equals 0.001

The recorded Relative Potency to METH, mAb6H4 for entry CNC(C)Cc1ccc2c(c1)OCO2 (single isomer, unassigned; (+)) [(+)MDMA, (+)-3,4-methylenedioxymethamphetamine] equals 1.25

The recorded Relative Potency to METH, mAb6H4 for entry CC(N)Cc1ccc2c(c1)OCO2 (single isomer, unassigned; (+)) [(+)MDA] equals 0.001

The recorded Relative Potency to METH, mAb6H4 for entry CNC(C)Cc1ccc(O)cc1 (stereo not shown) [4-OH-METH] equals 0.588

Where these numbers come from: patent US9303092B2
